target-of-assay: purified HLA-DR DRB1*0701 (human)
protocol-description: competition with 125I-labelled reference peptide, purified HLA
measured-property: IC50
Just so you know, I need the unit written after the number.

// sample ESAVLRGFLILGKED (modifications not checked) [Flu.PB2.690] , its IC50 was 2470 nM
